assayed system: JAK2 (Homo sapiens (Human), UniProt O60674)
Sequence (O60674 808-1132): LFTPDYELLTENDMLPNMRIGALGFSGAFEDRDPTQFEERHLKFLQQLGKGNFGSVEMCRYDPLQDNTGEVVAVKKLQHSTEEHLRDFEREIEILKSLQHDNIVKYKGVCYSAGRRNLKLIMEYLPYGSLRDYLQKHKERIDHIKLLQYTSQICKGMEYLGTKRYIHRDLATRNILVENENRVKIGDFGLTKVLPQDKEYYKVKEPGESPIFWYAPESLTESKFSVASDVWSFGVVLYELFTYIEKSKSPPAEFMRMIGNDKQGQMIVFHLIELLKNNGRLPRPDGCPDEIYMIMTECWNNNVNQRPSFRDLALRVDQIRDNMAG
protocol details: Inhibition of enzymatic JAK2 kinase activity (TR-FRET)
Assay type: biochemical
settings: read-out: IC50 JAK
quantity measured: IC50

Task item: Specify IC50 for CCN1CCN(c2ccc(Nc3nc(N4CCCCCC4)nc4cn[nH]c(=O)c34)cn2)CC1 and stop.
Reply: < 10 nM

Next:
Task item: Give reported IC50 value for CCN(CC)CCOc1ccc(Nc2nc(N3CCCCCC3)nc3cn[nH]c(=O)c23)cc1
Reply: < 10 nM

Task item: Given O=C(O)C1CC1C1CCN(c2ccc(Nc3nc(N4CCCCCC4)nc4cn[nH]c(=O)c34)cc2)CC1 (stereo not shown) , respond with its IC50.
Reply: < 10 nM

###

assayed system: JAK2 (Homo sapiens (Human), UniProt O60674)
protocol details: Inhibition of enzymatic JAK2 kinase activity (TR-FRET)
Format: biochemical
settings: read-out: IC50 JAK
pIC50: −log10 of the molar value. Counter-ions that a name gives are not always drawn.
Reported pIC50 by item:

Examples with answers:
Task item: Give the value of pIC50 reported for the following: N#CCC1CCN(c2nc(Nc3ccc(N4CCCC(CO)C4)cc3)c3c(=O)[nH]ncc3n2)CC1 (stereo not shown)
Reply: > 8.00

Task item: Respond only with pIC50 recorded for N#CCC(=O)N1CCN(c2ccc(Nc3nc(N4CCC(CC#N)CC4)nc4cn[nH]c(=O)c34)cc2)CC1
Reply: > 8.00

Task item: Report pIC50 for O=c1[nH]ncc2nc(N3CCCCCC3)nc(Nc3ccc(N4CCN(CC(O)CO)CC4)cc3)c12 (stereo not shown)
Reply: > 8.00

Task item: Give a short answer stating reported pIC50 for CN(C)c1nc(Nc2ccc(CN3CCNCC3)cc2)c2c(=O)[nH]ncc2n1 [Example 49, hydrochloride] .
Reply: > 7.00

Task item: Read off the recorded pIC50 for N#CCC(=O)N1CCN(c2ccc(Nc3nc(N4CCCCCC4)nc4cn[nH]c(=O)c34)cn2)CC1
Reply: > 8.00

***
Task item: Recall and state the measured pIC50 for CCN1CCN(c2ccc(Nc3nc(-c4ccc(OC(F)(F)F)cc4)nc4cn[nH]c(=O)c34)cc2)CC1 .
Reply: < 7.00

Task item: Supply reported pIC50 belonging to this compound: CCN1CCN(CCc2ccc(Nc3nc(N4CCC(CC#N)CC4)nc4cn[nH]c(=O)c34)cc2)CC1
Reply: > 8.00

###

System: RBL2H3 cells
protocol details: Degranulation assay: β-hexosaminidase release during immune complex mediated degranulation
Format: cell-based, rat
settings: Rattus norvegicus, RBL-2H3; Assay Protocol A (24 well format); read-out: Degranulation EC50
quantity measured: EC50 (nM)

Task item: Provide measured EC50 on RBL2H3 cells for CCN1CCN(c2ccc(Nc3nc(-c4ccccc4)nc4cn[nH]c(=O)c34)cc2)CC1 please.
Reply: 39

(P) O=C(O)C1CCN(c2ccc(Nc3nc(-c4ccccc4)nc4cn[nH]c(=O)c34)cc2)CC1
(Q) O=C(O)C1CC12CCN(c1ccc(Nc3nc(-c4ccccc4)nc4cn[nH]c(=O)c34)cc1)CC2 (stereo not shown)
(R) Cl.O=c1[nH]ncc2nc(-c3ccccc3)nc(Nc3ccc(CN4CCNCC4)cc3)c12 [Example 7, hydrochloride]
Task item: Please list these in order of increasing EC50. Thank you! Answer by naming the labels in the order asked.
Reply: Q, P, R
(Q: 19 nM, P: 47 nM, R: 86 nM)

###

assayed system: Syk (356-635 amino acids) catalytic domain (Homo sapiens (Human))
protocol details: Inhibition of enzymatic Syk kinase activity (radiometric)
Format: biochemical
settings: read-out: IC50 Syk
Experimental: The objective of this assay was to examine by radiometric method the ability of compounds to inhibit Syk kinase enzyme. Syk is capable of phosphorylating substrates such as VAV, LAT, SLP-76, which in turn activate MAPK, PLCγ signaling pathways. […] This in vitro assay tests the ability of syk to phosphorylate a substrate peptide in the presence of ATP. […] The filter plate was dried and the radioactivity was measured on a scintillation counter to estimate the incorporated radioactivity on the substrate. […]
Structures can show the parent of a compound that is named as a salt.
quantity measured: IC50

Task item: Read the entry O=c1[nH]ncc2nc(N3CCCCCC3)nc(Nc3ccc(N4CCCC(CO)C4)cc3)c12 (stereo not drawn) and write its reported IC50.
Reply: < 50 nM

Task item: Return reported IC50. Input molecule: O=c1[nH]ncc2nc(N3CCCCCC3)nc(Nc3ccc(OC[C@@H]4CO[C@@H](CO)CO4)cc3)c12
Reply: < 10 nM

Now consider a different molecule.
Task item: Look up IC50 of O=c1[nH]ncc2nc(N3CCCNCC3)nc(Nc3ccc(CN4CCNCC4)cc3)c12 [Example 59, dihydrochloride] and report it.
Reply: < 50 nM

###

assayed system: JAK2 (Homo sapiens (Human), UniProt O60674)
protocol details: Inhibition of enzymatic JAK2 kinase activity (TR-FRET)
Format: biochemical
settings: read-out: IC50 JAK
Where a name gives a salt, the structure may show the parent alone.
Recorded IC50, one value per entry.

Please review the following examples before continuing.
Task item: Write down IC50 measured for item CC(C)(O)C(=O)N1CCN(Cc2ccc(Nc3nc(-c4ccccc4)nc4cn[nH]c(=O)c34)cc2)CC1
Reply: < 50 nM

Task item: Supply measured IC50 of O=C(O)C1CC12CCN(c1ccc(Nc3nc(N4CCCCCC4)nc4cn[nH]c(=O)c34)cc1)CC2 (stereo not drawn) in your reply.
Reply: < 10 nM

Task item: Give reported IC50 value for CC(C)(O)C(=O)N1CCN(c2ccc(Nc3nc(N4CCCCCC4)nc4cn[nH]c(=O)c34)cc2)CC1
Reply: < 10 nM

Task item: For the molecule O=C(O)c1ccc(-c2nc(Nc3ccc(CN4CCNCC4)cc3)c3c(=O)[nH]ncc3n2)cc1 [Example 27, hydrochloride] , give its reported IC50.
Reply: > 100 nM

Task item: Give a short answer stating reported IC50 for CN1CCN(c2ccc(Nc3nc(N4CCC(CC#N)CC4)nc4cn[nH]c(=O)c34)cn2)CC1 .
Reply: < 50 nM

Task item: Item N#CCC1CCN(c2nc(Nc3ccc(N4CCC(O)CC4)cc3)c3c(=O)[nH]ncc3n2)CC1 : provide IC50
Reply: < 50 nM

Task item: Report IC50 for N#CCC1CCN(c2ccc(Nc3nc(N4CCC(CC#N)CC4)nc4cn[nH]c(=O)c34)cn2)CC1
Reply: < 50 nM

Task item: Please supply the value of reported IC50 for the item CCN1CCN(c2ccc(Nc3nc(-c4ccsc4)nc4cn[nH]c(=O)c34)cc2)CC1 [Example 37, hydrochloride]
Reply: < 100 nM

Further cases:
Task item: Report measured IC50; entry is COC(=O)c1ccc(-c2nc(Nc3ccc(CN4CCNCC4)cc3)c3c(=O)[nH]ncc3n2)cc1 [Example 2, hydrochloride]
Reply: > 100 nM

Task item: Give reported IC50 value for O=C(O)CC1CCN(c2ccc(Nc3nc(-c4ccccc4)nc4cn[nH]c(=O)c34)cc2)CC1
Reply: < 50 nM

Task item: Identify measured IC50 corresponding to O=c1[nH]ncc2nc(-c3ccc4c(c3)OCO4)nc(Nc3ccc(CN4CCNCC4)cc3)c12 [Example 33, hydrochloride]
Reply: > 100 nM

Task item: Indicate its recorded IC50; the molecule in question is CS(=O)(=O)c1ccc(Nc2nc(N3CCCCCC3)nc3cn[nH]c(=O)c23)cc1
Reply: < 10 nM

Task item: Give the reported IC50 for this molecule. N#CCC1CCN(c2nc(Nc3ccc(N4CCCC(O)C4)cc3)c3c(=O)[nH]ncc3n2)CC1 (stereo not drawn)
Reply: < 10 nM

Task item: Return IC50 for the following molecule: O=c1[nH]ncc2nc(N3CCCCCC3)nc(Nc3ccc(OC[C@@H]4CO[C@@H](CO)CO4)cc3)c12
Reply: < 50 nM

Task item: Return IC50 for the following molecule: CN1CCN(c2ccc(Nc3nc(N4CCCCCC4)nc4cn[nH]c(=O)c34)cn2)CC1
Reply: < 50 nM

Task item: Recall and state the measured IC50 for O=C(O)C1CC12CCN(c1ccc(Nc3nc(C4CCCCCC4)nc4cn[nH]c(=O)c34)cc1)CC2 (stereo not drawn) .
Reply: < 10 nM

Task item: Consider the molecule O=c1[nH]ncc2nc(N3CCCCCC3)nc(Nc3ccc(-c4nn[nH]n4)cc3)c12 and give its recorded IC50.
Reply: < 10 nM

Task item: Complete the entry with IC50 for N#CCC1CCN(c2nc(Nc3ccc(N4CCC(CC(=O)O)CC4)cc3)c3c(=O)[nH]ncc3n2)CC1
Reply: > 100 nM

Task item: Look up and report measured IC50 for this entry: N#CCC1CCN(c2nc(Nc3ccc(N4CCC(Cc5nn[nH]n5)CC4)cc3)c3c(=O)[nH]ncc3n2)CC1
Reply: < 10 nM

Task item: Give recorded IC50. CC(C)(O)C1CCN(c2ccc(Nc3nc(N4CCCCCC4)nc4cn[nH]c(=O)c34)cc2)CC1
Reply: < 10 nM

Task item: Look up and report measured IC50 for this entry: CC(C)(CO)N1CCN(c2ccc(Nc3nc(N4CCCCCC4)nc4cn[nH]c(=O)c34)cc2)CC1
Reply: < 10 nM

Task item: For the molecule O=c1[nH]ncc2nc(N3CCCCCC3)nc(Nc3ccc(OCCN4CCC(O)CC4)cc3)c12 , give its reported IC50.
Reply: < 10 nM

Task item: Please indicate IC50 recorded for N#CCC1CCN(c2nc(Nc3ccc(N4CCN(CC(O)CO)CC4)cc3)c3c(=O)[nH]ncc3n2)CC1 (stereo not drawn)
Reply: < 10 nM

Task item: Give reported IC50 value for CCOc1nc(Nc2ccc(CN3CCNCC3)cc2)c2c(=O)[nH]ncc2n1 [Example 50, hydrochloride]
Reply: > 100 nM

Task item: For the molecule O=C(O)C1CCN(c2nc(Nc3ccc(CN4CCNCC4)cc3)c3c(=O)[nH]ncc3n2)CC1 [Example 51, hydrochloride] , give its reported IC50.
Reply: > 100 nM
